target: UniProt:Q03405
Sequence (Q03405 whole entry): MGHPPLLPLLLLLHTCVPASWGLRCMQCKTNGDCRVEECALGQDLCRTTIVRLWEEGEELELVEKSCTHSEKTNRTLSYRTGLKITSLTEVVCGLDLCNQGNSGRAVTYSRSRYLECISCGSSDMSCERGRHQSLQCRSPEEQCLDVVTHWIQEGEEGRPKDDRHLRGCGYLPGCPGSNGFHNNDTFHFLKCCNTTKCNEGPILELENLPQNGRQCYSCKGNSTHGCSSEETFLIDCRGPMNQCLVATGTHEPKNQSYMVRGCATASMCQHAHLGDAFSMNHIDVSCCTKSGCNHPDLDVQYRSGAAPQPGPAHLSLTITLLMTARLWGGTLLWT
measurement kind: Ki (pM)

As a guide, the following entries are already answered.
| substance smiles | Ki (pM) |
| --- | --- |
| Nc1nc2ccccc2[nH]c1=O | 20800 |
| N#Cc1cc(-c2ccccc2)n(-c2ccc(Br)cc2)c1N | 3.27 |
| N#Cc1cc(-c2ccccc2)n(-c2ccncc2)c1N | 7.59 |
| Nc1c(-c2nc3ccccc3[nH]2)cc(-c2ccccc2)n1-c1ccc(Cl)cc1 | 4.45 |
| N#Cc1cc(-c2ccccc2)n(-c2cccc(Br)c2)c1N | 4.11 |

[a] O=C1NC2=Nc3ccccc3N(Cc3nc4ccccc4[nH]3)C2=Nc2ccccc21
[b] N#Cc1cc(-c2ccccc2)n(Cc2nc3ccccc3[nH]2)c1N
[c] N#Cc1cc(-c2ccccc2)n(-c2cccc(Cl)c2)c1N
[d] Nc1c(-c2nc3ccccc3[nH]2)cc(-c2ccccc2)n1-c1cccc(Cl)c1
[e] Nc1c(-c2nc3ccccc3[nH]2)cc(-c2ccccc2)n1-c1nc2ccccc2[nH]1
Sort the 5 compounds by Ki; largest first, smallest last. Show the ranking through the labels, in the order asked for.
a, d, c, e, b
